Target: Atmc9 (Arabidopsis thaliana)
Construct: it indeed consists of amino acids 184 to 325 (calculated mass 15427 Da); made in house; host or cells: E. coli BL21(DE3), pDEST17, Ni-NTA purified
Sequence (Q9FYE1 1-183 limits assumed): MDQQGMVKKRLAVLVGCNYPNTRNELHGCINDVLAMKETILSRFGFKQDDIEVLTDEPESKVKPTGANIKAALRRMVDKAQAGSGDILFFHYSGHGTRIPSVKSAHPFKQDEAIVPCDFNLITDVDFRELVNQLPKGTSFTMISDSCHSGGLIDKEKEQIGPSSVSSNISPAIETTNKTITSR
Sequence (Q9FYE1 184-325 limits assumed): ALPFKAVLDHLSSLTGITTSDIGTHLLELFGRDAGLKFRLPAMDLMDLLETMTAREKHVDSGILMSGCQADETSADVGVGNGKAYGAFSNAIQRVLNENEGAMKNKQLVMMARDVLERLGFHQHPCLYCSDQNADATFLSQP
Format: biochemical
Settings: pH 5.3
Non-standard residues stand in square brackets, D forms with d. Residues, ends and D or L forms follow the SMILES beside them. *: point of attachment. Sta = CC(C)C[C@H](N)[C@@H](O)CC(=O)O; Isovaleryl = CC(C)CC(=O)*
measured-endpoint: Activity (%)
One number for each entry, in %.

# compound, unit-abbrev, Activity (%)
records = [
    ("C[C@H](CCC(=O)NCCC[N+](C)(C)CCCS(=O)(=O)[O-])[C@H]1CC[C@H]2[C@@H]3[C@H](O)C[C@@H]4C[C@H](O)CC[C@]4(C)[C@H]3C[C@H](O)[C@]12C [CHAPS]", "%", 127),
    ("CC(C)C[C@H](NC(=O)[C@@H](NC(=O)N[C@@H](Cc1ccccc1)C(=O)O)[C@@H]1CCN=C(N)N1)C(=O)N[C@H](C=O)Cc1ccccc1 [Chymostatin]", "%", 33),
    ("Cc1ccc(S(=O)(=O)N[C@@H](Cc2ccccc2)C(=O)CCl)cc1 [TPCK]", "%", 35),
    ("CC(C)CC(=O)N[C@H](C(=O)N[C@H](C(=O)N[C@@H](CC(C)C)[C@@H](O)CC(=O)N[C@@H](C)C(=O)N[C@@H](CC(C)C)[C@@H](O)CC(=O)O)C(C)C)C(C)C [Pepstatin] (Isovaleryl-VV[Sta]A[Sta]-OH)", "%", 97),
    ("CC(C)C[C@H](NC(=O)[C@H]1O[C@@H]1C(=O)O)C(=O)NCCCCN=C(N)N (relative stereo) [E-64]", "%", 92),
    ("N=C(N)c1ccccc1 [Benzamidine]", "%", 22),
]

Can you share its Activity (%)? I mean this compound: NC(=O)CI [Iodoacetamide]
8

----------
target: Atmc9 (Arabidopsis thaliana, UniProt Q9FYE1); construct: it indeed consists of amino acids 184 to 325 (calculated mass 15427 Da); made in house; host or cells: E. coli BL21(DE3), pDEST17, Ni-NTA purified; assay type: biochemical; details: no concentration stated

# smiles-record, inhibition / inactivation of Atmc9
rows = [
    ("CC(C)C[C@H](NC(=O)[C@@H](NC(=O)N[C@@H](Cc1ccccc1)C(=O)O)[C@@H]1CCN=C(N)N1)C(=O)N[C@H](C=O)Cc1ccccc1", "weak inhibitors"),
    ("Cc1ccc(S(=O)(=O)N[C@@H](Cc2ccccc2)C(=O)CCl)cc1", "weak inhibitors"),
]
